Data provenance: patent US20230097157A1

Target: Factor XIa (Homo sapiens)
Test: Factor XIa inhibition assay (FLINT) utilizing a fluorophore-quencher pair peptide substrate 5Fam-[…]-K5Tamra
Format: biochemical
Conditions: kinetic (KIN) reads; values in nM; read-out: FXIa KIN Inh IC50
METRIC: IC50 (nM)

- COMPOUND: "C[C@H]1C[C@@H](c2cnc(-c3ccc(N)nc3F)[nH]2)n2c1cc(-c1c(-n3cnnn3)ccc(Cl)c1F)cc2=O (stereo in doubt)"
  IC50 (nM): 430
- COMPOUND: "C[C@H]1C[C@H](c2ncc(-c3ccnc(C#N)c3)[nH]2)n2c1cc(-c1c(-n3cnnn3)ccc(Cl)c1F)cc2=O (relative stereo)"
  IC50 (nM): 873

1. Cc1nc(N)c(F)cc1-c1cnc([C@H]2C[C@H](C)c3nc(-c4c(-n5cnnn5)ccc(Cl)c4F)cc(=O)n32)[nH]1 (relative stereo)
2. Nc1ccc(-c2[nH]c(C3CC4(CC4)c4nc(-c5c(-n6cnnn6)ccc(Cl)c5F)cc(=O)n43)nc2F)c(F)n1 (stereo in doubt)
3. C[C@@H]1C[C@@H](c2ncc(-c3ccc4c(=O)cc[nH]c4c3)[nH]2)n2c1nc(-c1c(-n3cnnn3)ccc(Cl)c1F)cc2=O (relative stereo)
4. COC(=O)Nc1ccc(-c2cnc([C@@H]3C[C@@H](C)c4nc(-c5c(-n6cnnn6)ccc(Cl)c5F)cc(=O)n43)[nH]2)cn1 (stereo in doubt)
Sort (4 compounds) by IC50: min first. Dear reader, please state the labels in the requested order.
2, 4, 1, 3
(2: 0.8 nM, 4: 7.9 nM, 1: 168 nM, 3: 321 nM)

* * *

Target: Factor XIa (Homo sapiens, UniProt P03951)
Sequence (P03951 388-625 limits assumed): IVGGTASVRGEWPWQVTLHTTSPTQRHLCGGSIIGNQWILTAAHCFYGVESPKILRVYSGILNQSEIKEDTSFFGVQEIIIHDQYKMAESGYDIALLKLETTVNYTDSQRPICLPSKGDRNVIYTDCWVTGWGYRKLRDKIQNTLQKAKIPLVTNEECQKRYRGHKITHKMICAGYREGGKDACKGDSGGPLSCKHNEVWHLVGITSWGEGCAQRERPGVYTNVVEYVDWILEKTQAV
Sequence (P03951 19-387 partner limits assumed): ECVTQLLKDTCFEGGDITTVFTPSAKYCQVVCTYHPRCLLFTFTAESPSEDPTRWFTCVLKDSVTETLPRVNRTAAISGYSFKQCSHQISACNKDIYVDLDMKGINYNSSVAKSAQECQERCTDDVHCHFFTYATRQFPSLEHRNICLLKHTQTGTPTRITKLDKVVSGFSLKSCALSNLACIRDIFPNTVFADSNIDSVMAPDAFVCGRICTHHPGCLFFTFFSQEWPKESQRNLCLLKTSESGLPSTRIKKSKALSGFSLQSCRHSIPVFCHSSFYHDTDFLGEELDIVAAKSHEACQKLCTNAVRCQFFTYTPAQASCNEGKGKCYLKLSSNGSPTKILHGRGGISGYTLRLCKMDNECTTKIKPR
Assay: Factor XIa inhibition assay (FLINT) utilizing a fluorophore-quencher pair peptide substrate 5Fam-[…]-K5Tamra
Format: biochemical
Conditions: kinetic (KIN) reads; values in nM; read-out: FXIa KIN Inh IC50
METRIC: IC50 (nM)

- MOLECULE: "C[C@H]1C[C@@H](c2nc(-c3ncc(N)nc3Cl)c[nH]2)n2c1nc(-c1c(-n3cnnn3)ccc(Cl)c1F)cc2=O [Example 93]"
  IC50 / nM: 0.5
- MOLECULE: "CC1C[C@@H](c2nc(-c3cnc(N)cn3)c[nH]2)n2c1nc(-c1c(-n3cc(C(F)(F)F)nn3)ccc(Cl)c1F)cc2=O (stereo partly drawn) [Example 80]"
  IC50 / nM: 4.4
- MOLECULE: "C[C@@H]1C[C@H](c2ncc(-c3ccc4c(c3)CC(=O)N4)[nH]2)n2c1nc(-c1c(-n3cnnn3)ccc(Cl)c1F)cc2=O (stereo in doubt) [Example 112]"
  IC50 / nM: 1.6
- MOLECULE: "COC(=O)Nc1ccc(-c2cnc([C@@H]3C[C@H](C)c4cc(-c5c(-n6cnnn6)ccc(Cl)c5F)cc(=O)n43)[nH]2)cc1 [Example 63]"
  IC50 / nM: 0.2
- MOLECULE: "C[C@H]1C[C@@H](c2ncc(-c3cn[nH]c3)[nH]2)n2c1nc(-c1c(-n3cnnn3)ccc(Cl)c1F)cc2=O (stereo in doubt) [Example 107]"
  IC50 / nM: 2.4
- MOLECULE: "C[C@@H]1C[C@H](c2ncc(-c3ccnc(CN)c3)[nH]2)n2c1cc(-c1c(-n3cnnn3)ccc(Cl)c1F)cc2=O (relative stereo) [Example 38]"
  IC50 / nM: 42.9

P. C[C@H]1C[C@@H](c2ncc(-c3sc(N)nc3C(F)(F)F)[nH]2)n2c1cc(-c1c(-n3cnnn3)ccc(Cl)c1F)cc2=O [Example 27]
Q. Nc1nsc2cc(-c3cnc([C@@H]4CC5(CC5)c5nc(-c6c(-n7cnnn7)ccc(Cl)c6F)cc(=O)n54)[nH]3)ccc12 [Example 81]
R. C[C@H]1C[C@@H](c2ncc(-c3ccnc(C#N)c3)[nH]2)n2c1cc(-c1c(-n3cnnn3)ccc(Cl)c1F)cc2=O (relative stereo) [Example 32]
List from greatest to least IC50. Dear reader, please state the labels in the requested order.
P, R, Q
(P: 483 nM, R: 11.2 nM, Q: 0.6 nM)

a. C[C@H]1C[C@@H](c2ncc(-c3ccc(N)nn3)[nH]2)n2c1cc(-c1c(-n3cnnn3)ccc(Cl)c1F)cc2=O (relative stereo) [Example 10]
b. Nc1ccc(-c2cnc([C@@H]3CC4(CC4)c4nc(-c5c(-n6cnnn6)ccc(Cl)c5F)cc(=O)n43)[nH]2)c(F)n1 [Example 134]
c. CO[C@@H]1C[C@H](c2ncc(-c3ccc(N)nc3F)[nH]2)n2c1cc(-c1c(-n3cnnn3)ccc(Cl)c1F)cc2=O (relative stereo) [Example 151]
d. Cc1nc(N)cnc1-c1cnc([C@@H]2CC(C)c3nc(-c4c(-n5cnnn5)ccc(Cl)c4F)cc(=O)n32)[nH]1 (stereo partly drawn) [Example 95]
e. Cc1cc(-c2cnc([C@H]3C[C@H](C)c4cc(-c5c(-n6cnnn6)ccc(Cl)c5F)cc(=O)n43)[nH]2)ccn1 (stereo in doubt) [Example 42]
Sort (5 molecules) by IC50: min first. Dear reader, please state the labels in the requested order.
c, b, e, d, a

P. Cc1nc(N)ccc1-c1cnc([C@@H]2C[C@@H](C)c3cc(-c4c(-n5cnnn5)ccc(Cl)c4F)cc(=O)n32)[nH]1 [Example 50]
Q. C[C@@H]1C[C@H](c2ncc(-c3ccc4nn(C)cc4c3)[nH]2)n2c1cc(-c1c(-n3cnnn3)ccc(Cl)c1F)cc2=O (stereo in doubt) [Example 47]
Lower value for measured IC50? Options: P , Q Kindly state the label of the option you pick.
P
(P: 1.4 nM, Q: 23.7 nM)

* * *

Molecular target: human plasma kallikrein (Homo sapiens, UniProt P03952)
Sequence (P03952 391-638 limits assumed): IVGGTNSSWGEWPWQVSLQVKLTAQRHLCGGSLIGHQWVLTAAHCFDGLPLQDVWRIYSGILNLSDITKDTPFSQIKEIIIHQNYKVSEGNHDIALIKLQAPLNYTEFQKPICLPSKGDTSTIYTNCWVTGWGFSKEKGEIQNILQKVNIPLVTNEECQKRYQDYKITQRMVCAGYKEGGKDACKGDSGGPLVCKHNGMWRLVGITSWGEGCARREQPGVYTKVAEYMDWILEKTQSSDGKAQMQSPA
Sequence (P03952 20-390 partner limits assumed): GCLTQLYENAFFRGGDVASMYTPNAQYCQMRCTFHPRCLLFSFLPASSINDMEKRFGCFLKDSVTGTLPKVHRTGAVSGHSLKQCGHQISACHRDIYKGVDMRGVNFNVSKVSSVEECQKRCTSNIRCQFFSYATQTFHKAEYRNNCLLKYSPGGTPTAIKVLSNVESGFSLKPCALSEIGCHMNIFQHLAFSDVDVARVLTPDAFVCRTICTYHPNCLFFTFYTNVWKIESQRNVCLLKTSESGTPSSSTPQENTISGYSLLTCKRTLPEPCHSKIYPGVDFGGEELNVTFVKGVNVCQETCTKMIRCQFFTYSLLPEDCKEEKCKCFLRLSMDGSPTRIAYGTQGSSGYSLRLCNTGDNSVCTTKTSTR
Assay: Kallikrein inhibition assay (FLINT) utilizing a quenched AMC peptide substrate Z-Gly-Pro-Arg-AMC
Type: biochemical
Settings: kinetic (KIN) reads; unit μM; read-out: Kallikrein KIN Inh IC50
METRIC: IC50 (µM)

- COMPOUND: "C[C@@H]1C[C@H](c2ncc(-c3cn[nH]c3)[nH]2)n2c1nc(-c1c(-n3cnnn3)ccc(Cl)c1F)cc2=O (stereo in doubt)"
  MEASURED: 7.1
- COMPOUND: "Nc1ncc(-c2cnc([C@H]3CC4(CC4)c4cc(-c5c(-n6cnnn6)ccc(Cl)c5F)cc(=O)n43)[nH]2)s1"
  MEASURED: 9.05
- COMPOUND: "COC(=O)Nc1ccc(-c2cnc([C@@H]3C[C@H](C)c4cc(-c5c(-n6cnnn6)ccc(Cl)c5F)cc(=O)n43)[nH]2)cc1 (relative stereo)"
  MEASURED: 5.4
- COMPOUND: "C[C@H]1C[C@H](c2ncc(-c3cnns3)[nH]2)n2c1nc(-c1c(-n3cnnn3)ccc(Cl)c1F)cc2=O (relative stereo)"
  MEASURED: 6.4

A. Nc1ccc(-c2cnc([C@H]3CC4(CC4)c4nc(-c5c(-n6cnnn6)ccc(Cl)c5F)cc(=O)n43)[nH]2)c(F)n1
B. C[C@H]1C[C@@H](c2ncc(-c3sc(N)nc3C(F)(F)F)[nH]2)n2c1cc(-c1c(-n3cnnn3)ccc(Cl)c1F)cc2=O
Lower value for measured IC50? Options: A , B Kindly state the label of the option you pick.
B
(B: 2.4 µM, A: 4 µM)

* * *

Target: human plasma kallikrein (Homo sapiens)
Test: Kallikrein inhibition assay (FLINT) utilizing a quenched AMC peptide substrate Z-Gly-Pro-Arg-AMC
Format: biochemical
Settings: kinetic (KIN) reads; values in nM; read-out: Kallikrein KIN Inh IC50
METRIC: IC50 (nM)

- COMPOUND: "C[C@H]1C[C@H](c2ncc(-c3ccc(N)nc3Cl)[nH]2)n2c1nc(-c1c(-n3cnnn3)ccc(Cl)c1F)cc2=O [Example 141]"
  SYSTEM_UNDER_TEST: "human plasma kallikrein (Homo sapiens)"
  MEASURED: 13.5

1. C[C@H]1C[C@@H](c2ncc(-c3ccnn3C)[nH]2)n2c1nc(-c1c(-n3cnnn3)ccc(Cl)c1F)cc2=O (stereo in doubt) [Example 144]
2. C[C@@H]1C[C@H](c2ncc(-c3ccc4c(c3)CC(=O)N4)[nH]2)n2c1nc(-c1c(-n3cnnn3)ccc(Cl)c1F)cc2=O (stereo in doubt) [Example 112]
For this pair, 1 and 2 , which shows a numerically higher IC50? Kindly state the label of the option you pick.
1
(1: 246 nM, 2: 7.8 nM)

* * *

Target: Factor XIa (Homo sapiens, UniProt P03951)
Experiment: Factor XIa inhibition assay (FLINT) utilizing a fluorophore-quencher pair peptide substrate 5Fam-[…]-K5Tamra
Type: biochemical
Conditions: kinetic (KIN) reads; values in nM; read-out: FXIa KIN Inh IC50
METRIC: IC50 (nM)

- MOLECULE: "COC(=O)Nc1ccc(-c2cnc([C@H]3C[C@H](C)c4nc(-c5c(-n6cnnn6)ccc(Cl)c5F)cc(=O)n43)[nH]2)cc1 (stereo in doubt)"
  UNIT_STRING: "nM"
  IC50: 8.3

1. C[C@@H]1C[C@@H](c2ncc(-c3ccc(NC(=O)C4CC4)nc3)[nH]2)n2c1nc(-c1c(-n3cnnn3)ccc(Cl)c1F)cc2=O (stereo in doubt)
2. COC(=O)Nc1ccc(-c2cnc([C@H]3C[C@@H](C)c4nc(-c5c(-n6cnnn6)ccc(Cl)c5F)cc(=O)n43)[nH]2)cc1 (stereo in doubt)
3. Nc1ccc(-c2cnc(C3CCCc4cc(-c5c(-n6cnnn6)ccc(Cl)c5F)cc(=O)n43)[nH]2)c(F)n1 (single isomer, unassigned)
4. C[C@H]1C[C@@H](c2ncc(-c3ccnc(F)c3)[nH]2)n2c1cc(-c1c(-n3cnnn3)ccc(Cl)c1F)cc2=O (stereo in doubt)
List from greatest to least IC50. Dear reader, please state the labels in the requested order.
2, 1, 4, 3
(2: 190 nM, 1: 95 nM, 4: 14.9 nM, 3: 1.2 nM)
